system: HeLa Kyoto; assay: solubility in G1/S (NP-40 vs SDS abundance) (log2 ratio); higher = more soluble; conditions: cell cycle stage: G1/S
Note to self: values exactly at 0.09 are y. So solubility in G1/S (log2) at or above 0.09 is y, below is n.

Input: Check this sequence for solubility in G1/S (log2) at or above 0.09: MAAPPGEYFSVGSQVSCRTCQEQRLQGEVVAFDYQSKMLALKCPSSSGKPNHADILLINLQYVSEVEIINDRTETPPPLASLNVSKLASKARTEKEEKLSQAYAISAGVSLEGQQLFQTIHKTIKDCKWQEKNIVVMEEVVITPPYQVENCKGKEGSALSHVRKIVEKHFRDVESQKILQRSQAQQPQKEAALSS [LSM12]
Output: n

Input: Check this sequence for solubility in G1/S (log2) at or above 0.09: MARVLKAAAANAVGLFSRLQAPIPTVRASSTSQPLDQVTGSVWNLGRLNHVAIAVPDLEKAAAFYKNILGAQVSEAVPLPEHGVSVVFVNLGNTKMELLHPLGRDSPIAGFLQKNKAGGMHHICIEVDNINAAVMDLKKKKIRSLSEEVKIGAHGKPVIFLHPKDCGGVLVELEQA [MCEE]
Output: y

Input: Check this sequence for solubility in G1/S (log2) at or above 0.09: MSGAGEALAPGPVGPQRVAEAGGGQLGSTAQGKCDKDNTEKDITQATNSHFTHGEMQDQSIWGNPSDGELIRTQPQRLPQLQTSAQVPSGEEIGKIKNGHTGLSNGNGIHHGAKHGSADNRKLSAPVSQKMHRKIQSSLSVNSDISKKSKVNAVFSQKTGSSPEDCCVHCILACLFCEFLTLCNIVLGQASCGICTSEACCCCCGDEMGDDCNCPCDMDCGIMDACCESSDCLEICMECCGICFPS [MDFIC]
Output: n

Input: Check this sequence for solubility in G1/S (log2) at or above 0.09: MAANKSKGQSSLALHKVIMVGSGGVGKSALTLQFMYDEFVEDYEPTKADSYRKKVVLDGEEVQIDILDTAGQEDYAAIRDNYFRSGEGFLLVFSITEHESFTATAEFREQILRVKAEEDKIPLLVVGNKSDLEERRQVPVEEARSKAEEWGVQYVETSAKTRANVDKVFFDLMREIRTKKMSENKDKNGKKSSKNKKSFKERCCLL [RALB]
Output: n

Input: Check this sequence for solubility in G1/S (log2) at or above 0.09: MEELLRRELGCSSVRATGHSGGGCISQGRSYDTDQGRVFVKVNPKAEARRMFEGEMASLTAILKTNTVKVPKPIKVLDAPGGGSVLVMEHMDMRHLSSHAAKLGAQLADLHLDNKKLGEMRLKEAGTVGRGGGQEERPFVARFGFDVVTCCGYLPQVNDWQEDWVVFYARQRIQPQMDMVEKESGDREALQLWSALQLKIPDLFRDLEIIPALLHGDLWGGNVAEDSSGPVIFDPASFYGHSEYELAIAGMFGGFSSSFYSAYHGKIPKAPGFEKRLQLYQLFHYLNHWNHFGSGYRGSSLNIMRNLVK [FN3KRP]
Output: y

* * *

Exercise: for every item that follows, state its recorded solubility change mitosis (log2).
system: HeLa Kyoto; assay: solubility change mitosis vs G1/S (difference of NP-40 vs SDS log2 ratios) (log2 ratio difference); higher = more soluble in mitosis

Input: Which solubility change mitosis (log2) value is on record for MSSLSGKVQTVLGLVEPSKLGRTLTHEHLAMTFDCCYCPPPPCQEAISKEPIVMKNLYWIQKNAYSHKENLQLNQETEAIKEELLYFKANGGGALVENTTTGISRDTQTLKRLAEETGVHIISGAGFYVDATHSSETRAMSVEQLTDVLMNEILHGADGTSIKCGIIGEIGCSWPLTESERKVLQATAHAQAQLGCPVIIHPGRSSRAPFQIIRILQEAGADISKTVMSHLDRTILDKKELLEFAQLGCYLEYDLFGTELLHYQLGPDIDMPDDNKRIRRVRLLVEEGCEDRILVAHDIHTKTRLMKYGGHGYSHILTNVVPKMLLRGITENVLDKILIENPKQWLTFK [PTER] ?
Output: -0.0354

Input: Which solubility change mitosis (log2) value is on record for MELTIFILRLAIYILTFPLYLLNFLGLWSWICKKWFPYFLVRFTVIYNEQMASKKRELFSNLQEFAGPSGKLSLLEVGCGTGANFKFYPPGCRVTCIDPNPNFEKFLIKSIAENRHLQFERFVVAAGENMHQVADGSVDVVVCTLVLCSVKNQERILREVCRVLRPGGAFYFMEHVAAECSTWNYFWQQVLDPAWHLLFDGCNLTRESWKALERASFSKLKLQHIQAPLSWELVRPHIYGYAVK [METTL7A] ?
Output: -0.0939

Input: Which solubility change mitosis (log2) value is on record for MALLALLLVVALPRVWTDANLTARQRDPEDSQRTDEGDNRVWCHVCERENTFECQNPRRCKWTEPYCVIAAVKIFPRFFMVAKQCSAGCAAMERPKPEEKRFLLEEPMPFFYLKCCKIRYCNLEGPPINSSVFKEYAGSMGESCGGLWLAILLLLASIAAGLSLS [LY6K] ?
Output: -0.107

Input: Which solubility change mitosis (log2) value is on record for MTEQAISFAKDFLAGGIAAAISKTAVAPIERVKLLLQVQHASKQIAADKQYKGIVDCIVRIPKEQGVLSFWRGNLANVIRYFPTQALNFAFKDKYKQIFLGGVDKHTQFWRYFAGNLASGGAAGATSLCFVYPLDFARTRLAADVGKSGTEREFRGLGDCLVKITKSDGIRGLYQGFSVSVQGIIIYRAAYFGVYDTAKGMLPDPKNTHIVVSWMIAQTVTAVAGVVSYPFDTVRRRMMMQSGRKGADIMYTGTVDCWRKIFRDEGGKAFFKGAWSNVLRGMGGAFVLVLYDELKKVI [SLC25A6] ?
Output: 0.0142

Input: Which solubility change mitosis (log2) value is on record for `ARHGEF11` ?
Output: -0.0196

Input: Which solubility change mitosis (log2) value is on record for MSLHGKRKEIYKYEAPWTVYAMNWSVRPDKRFRLALGSFVEEYNNKVQLVGLDEESSEFICRNTFDHPYPTTKLMWIPDTKGVYPDLLATSGDYLRVWRVGETETRLECLLNNNKNSDFCAPLTSFDWNEVDPYLLGTSSIDTTCTIWGLETGQVLGRVNLVSGHVKTQLIAHDKEVYDIAFSRAGGGRDMFASVGADGSVRMFDLRHLEHSTIIYEDPQHHPLLRLCWNKQDPNYLATMAMDGMEVVILDVRVPCTPVARLNNHRACVNGIAWAPHSSCHICTAADDHQALIWDIQQMPRAIEDPILAYTAEGEINNVQWASTQPDWIAICYNNCLEILRV [DCAF7] ?
Output: -0.147

Input: Which solubility change mitosis (log2) value is on record for MNSGRPETMENLPALYTIFQGEVAMVTDYGAFIKIPGCRKQGLVHRTHMSSCRVDKPSEIVDVGDKVWVKLIGREMKNDRIKVSLSMKVVNQGTGKDLDPNNVIIEQEERRRRSFQDYTGQKITLEAVLNTTCKKCGCKGHFAKDCFMQPGGTKYSLIPDEEEEKEEAKSAEFEKPDPTRNPSRKRKKEKKKKKHRDRKSSDSDSSDSESDTGKRARHTSKDSKAAKKKKKKKKHKKKHKE [ZCCHC17] ?
Output: 0.661
